endpoint: melting point (°C)
Kindly provide the numeric value in °C only, without the unit symbol.

Request: Could you share which melting point value was measured for `COCOc1c(C(C)(C)C)cc(/C=[N+](\[O-])Cc2ccccc2)cc1C(C)(C)C` ?
Result: 134.2

Request: Could you share which melting point value was measured for `COc1c(C(C)(C)C)cc(/C=[N+](\[O-])C(C)(C)C)cc1C(C)(C)C` ?
Result: 223.1

Request: Could you share which melting point value was measured for `CCOC(=O)COc1c(C(C)(C)C)cc(C=[N+]([O-])C(C)(C)C)cc1C(C)(C)C` ?
Result: 188

Request: Could you share which melting point value was measured for `COCOc1c(C(C)(C)C)cc(C=[N+]([O-])CC2CCCCC2)cc1C(C)(C)C` ?
Result: 143.1

Request: Could you share which melting point value was measured for `CCOc1c(C(C)(C)C)cc(/C=[N+](\[O-])C(C)(C)C)cc1C(C)(C)C` ?
Result: 212.1
